Literature survey of pKi (system: the protein given by its sequence).
Sequence of the target: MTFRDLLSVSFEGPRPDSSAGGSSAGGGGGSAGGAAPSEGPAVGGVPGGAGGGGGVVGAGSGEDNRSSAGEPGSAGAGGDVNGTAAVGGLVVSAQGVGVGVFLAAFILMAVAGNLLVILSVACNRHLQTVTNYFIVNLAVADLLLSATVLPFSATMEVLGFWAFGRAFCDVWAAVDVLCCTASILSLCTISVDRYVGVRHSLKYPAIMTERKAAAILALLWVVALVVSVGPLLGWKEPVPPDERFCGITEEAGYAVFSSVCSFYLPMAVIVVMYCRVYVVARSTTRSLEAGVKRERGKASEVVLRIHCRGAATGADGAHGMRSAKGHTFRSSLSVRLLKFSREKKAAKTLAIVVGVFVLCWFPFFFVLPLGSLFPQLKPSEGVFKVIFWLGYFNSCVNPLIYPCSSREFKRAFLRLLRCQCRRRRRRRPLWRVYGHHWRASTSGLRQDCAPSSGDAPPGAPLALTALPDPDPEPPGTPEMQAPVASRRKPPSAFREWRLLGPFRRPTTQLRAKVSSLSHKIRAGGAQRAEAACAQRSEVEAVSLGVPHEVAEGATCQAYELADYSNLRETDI
pKi: −log10 of the molar value.
measured attribute: pKi

Previously resolved entries follow.
>>> df
                                   compound  measurement
0  COCC1=C(C(=O)OC)C(c2ccc(F)c(F)c2)N(C(=O)NCCCN2CCC(C#N)(c3ccccc3)CC2)C(=O)N1 (stereo not drawn)         6.59
1  Cc1ccc(C2(c3ccc(C)cc3)CC(=O)N(CC(O)CN3CCC(C#N)(c4ccccc4C)CC3)C2=O)cc1 (stereo not drawn)         5.39
2  COc1cccc2c1CC[C@H]1CN(CCn3c(=O)[nH]c4c(sc5cccnc54)c3=O)C[C@@H]21         9.01
3          COc1ccccc1N1CCN(Cc2ccc(CO)s2)CC1         6.86
4  COc1ccccc1N1CCN(CCn2c(C)nc3c(sc4ccc(NC(=O)CCCC(=O)NCc5ccccc5)cc43)c2=O)CC1         8.26

[a] COCC1=C(C(=O)OC)[C@H](c2ccc(F)c(F)c2)N(C(=O)N[C@@H]2CC[C@@H](N3CCC(c4ccccc4C#N)CC3)C2)C(=O)N1
[b] COc1cccc(OCCNCC2COC(c3ccccc3)(c3ccccc3)O2)c1OC (racemic)
[c] CC(C)Oc1ccccc1N1CCN(Cc2cc(CN3CCCCC3=O)n[nH]2)CC1
[ask] Please list the entries, largest pKi first. Lab note: final answer is the ordered label list.
[reply] a, c, b
(a: 7.51, c: 6.75, b: 6.45)

[a] COc1ccc2c(c1OCCNC[C@@H]1COc3ccccc3O1)OCC2
[b] O=C1CC2(CCCC2)CC(=O)N1CCN1CCN(c2cc(F)c(F)cc2F)CC1
[ask] Identify the entry with the smaller pKi: a or b . I would appreciate it if you answered with the label of your choice.
[reply] a
(a: 7.74, b: 8.72)

[P] COc1cc2nc(N3CCN(C(=O)C4COc5ccccc5O4)[C@H]4CCCC[C@@H]43)nc(N)c2cc1OC (relative stereo)
[Q] COc1cc2nc(N3CCN(C(=O)c4ccc(C)o4)[C@H]4CCCC[C@H]43)nc(N)c2cc1OC
[ask] Which has the smaller recorded pKi, P or Q ? Record your answer as the label of the chosen record.
[reply] P
